# log10 of EC50 per entry
Target: androgen receptor (Homo sapiens (Human), UniProt P10275)
Sequence (P10275 whole entry, species assumed): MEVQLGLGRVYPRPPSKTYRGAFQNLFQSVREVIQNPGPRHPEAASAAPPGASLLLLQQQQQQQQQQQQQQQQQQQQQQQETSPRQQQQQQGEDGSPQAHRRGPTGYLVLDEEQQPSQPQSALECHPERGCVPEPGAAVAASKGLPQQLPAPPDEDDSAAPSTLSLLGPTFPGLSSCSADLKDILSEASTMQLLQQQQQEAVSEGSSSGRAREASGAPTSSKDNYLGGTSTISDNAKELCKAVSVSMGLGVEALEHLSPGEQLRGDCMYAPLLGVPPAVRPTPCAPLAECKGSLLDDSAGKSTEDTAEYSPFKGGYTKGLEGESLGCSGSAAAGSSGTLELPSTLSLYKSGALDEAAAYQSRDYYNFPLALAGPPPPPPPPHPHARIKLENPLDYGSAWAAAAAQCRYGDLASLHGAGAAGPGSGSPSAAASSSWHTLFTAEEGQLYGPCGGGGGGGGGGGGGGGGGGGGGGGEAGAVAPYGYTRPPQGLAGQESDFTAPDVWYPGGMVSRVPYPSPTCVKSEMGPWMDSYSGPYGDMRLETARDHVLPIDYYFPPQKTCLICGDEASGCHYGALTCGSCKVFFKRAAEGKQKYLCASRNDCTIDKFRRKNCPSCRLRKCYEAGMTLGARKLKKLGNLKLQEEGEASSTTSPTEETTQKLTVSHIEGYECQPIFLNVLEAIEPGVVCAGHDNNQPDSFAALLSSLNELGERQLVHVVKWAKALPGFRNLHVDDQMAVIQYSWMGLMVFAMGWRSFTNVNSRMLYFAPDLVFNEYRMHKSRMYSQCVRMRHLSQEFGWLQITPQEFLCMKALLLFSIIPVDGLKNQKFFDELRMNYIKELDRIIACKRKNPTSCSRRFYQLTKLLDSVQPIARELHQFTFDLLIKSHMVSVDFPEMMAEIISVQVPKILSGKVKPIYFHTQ
Experiment: Androgenic/antiandrogenic action by transactivation test (PC3 reporter cells)
Conditions: read-out: Androgen receptor Agonism EC50
Procedure: 6. Determination of Androgenic/Antiandrogenic Action by Means of Transactivation Tests: The androgenic/antiandrogenic action of the test substances was determined as for the transactivation tests described above. The following modifications were made: In this case reporter cell lines were used (PC3 cells) that express the androgen receptor, and a reporter construct that contains luciferase under the control of a steroid hormone-responsive promoter. […]
Endpoint Name: log10 of EC50 (log10 of the value in nM)

[[record]]
compound = "CC[C@@H]1CC2=CC(=O)CC[C@@H]2[C@H]2CC[C@@]3(CC)[C@@H](CC[C@@]34C=CCO4)[C@H]12"
target_system = "androgen receptor (Homo sapiens (Human), UniProt P10275)"
endpoint_name = "log10 of EC50"
readout_number = 0.97

[[record]]
compound = "C=C[C@@H]1CC2=CC(=O)CC[C@@H]2[C@H]2CC[C@@]3(CC)[C@@H](CC[C@@]34C=CCO4)[C@@H]21"
target_system = "androgen receptor (Homo sapiens (Human), UniProt P10275)"
endpoint_name = "log10 of EC50"
readout_number = 0.72

[[record]]
compound = "C=C[C@@H]1CC2=CC(=O)CC[C@@H]2[C@H]2CC[C@@]3(C)[C@@H](CC[C@@]34C=CCO4)[C@@H]21"
target_system = "androgen receptor (Homo sapiens (Human), UniProt P10275)"
endpoint_name = "log10 of EC50"
readout_number = 0.57

[[record]]
compound = "CC[C@]12CC[C@H]3[C@@H](CCC4=CC(=O)CC[C@@H]43)[C@@H]1CC[C@@]21C=CCO1 (stereo in doubt)"
target_system = "androgen receptor (Homo sapiens (Human), UniProt P10275)"
endpoint_name = "log10 of EC50"
readout_number = 0.57

[[record]]
compound = "CC[C@]12CC[C@H]3[C@@H]([C@H](C)CC4=CC(=O)CC[C@@H]43)[C@@H]1CC[C@@]21C=CCO1"
target_system = "androgen receptor (Homo sapiens (Human), UniProt P10275)"
endpoint_name = "log10 of EC50"
readout_number = 0.48

[[record]]
compound = "CC[C@]12CC[C@H]3[C@@H](C[C@@H](CO)C4=CC(=O)CC[C@@H]43)[C@@H]1CC[C@@]21C=CCO1"
target_system = "androgen receptor (Homo sapiens (Human), UniProt P10275)"
endpoint_name = "log10 of EC50"
readout_number = 3.00

[[record]]
compound = "CC[C@@H]1CC2=CC(=O)CC[C@@H]2[C@H]2CC[C@@]3(C)[C@@H](CC[C@@]34C=CCO4)[C@H]12"
target_system = "androgen receptor (Homo sapiens (Human), UniProt P10275)"
endpoint_name = "log10 of EC50"
readout_number = 0.86


* * *

# Emax per entry
target: androgen receptor (Homo sapiens (Human), UniProt P10275); experiment: Androgenic/antiandrogenic action by transactivation test (PC3 reporter cells); assay type: cell-based; conditions: 0.05 nM R1881, read-out: Androgen receptor Antagonism efficacy
Endpoint Name: Emax (%)

[[record]]
compound = "CC[C@]12CC[C@H]3[C@@H](CCC4=CC(=O)CC[C@@H]43)[C@@H]1CC[C@@]21C=CCO1 (stereo in doubt)"
readout_number = 25.4

[[record]]
compound = "C[C@]12CC[C@H]3[C@@H](C=CC4=CC(=O)CC[C@@H]43)[C@@H]1CC[C@@]21C=CCO1 (stereo in doubt)"
readout_number = 34.4

[[record]]
compound = "CC[C@]12CC[C@H]3[C@@H]([C@H](C4CC4)CC4=CC(=O)CC[C@@H]43)[C@@H]1CC[C@@]21C=CCO1"
readout_number = 5


* * *

molecular target: progesterone receptor (Homo sapiens (Human))
Sequence (P06401 whole entry, species assumed): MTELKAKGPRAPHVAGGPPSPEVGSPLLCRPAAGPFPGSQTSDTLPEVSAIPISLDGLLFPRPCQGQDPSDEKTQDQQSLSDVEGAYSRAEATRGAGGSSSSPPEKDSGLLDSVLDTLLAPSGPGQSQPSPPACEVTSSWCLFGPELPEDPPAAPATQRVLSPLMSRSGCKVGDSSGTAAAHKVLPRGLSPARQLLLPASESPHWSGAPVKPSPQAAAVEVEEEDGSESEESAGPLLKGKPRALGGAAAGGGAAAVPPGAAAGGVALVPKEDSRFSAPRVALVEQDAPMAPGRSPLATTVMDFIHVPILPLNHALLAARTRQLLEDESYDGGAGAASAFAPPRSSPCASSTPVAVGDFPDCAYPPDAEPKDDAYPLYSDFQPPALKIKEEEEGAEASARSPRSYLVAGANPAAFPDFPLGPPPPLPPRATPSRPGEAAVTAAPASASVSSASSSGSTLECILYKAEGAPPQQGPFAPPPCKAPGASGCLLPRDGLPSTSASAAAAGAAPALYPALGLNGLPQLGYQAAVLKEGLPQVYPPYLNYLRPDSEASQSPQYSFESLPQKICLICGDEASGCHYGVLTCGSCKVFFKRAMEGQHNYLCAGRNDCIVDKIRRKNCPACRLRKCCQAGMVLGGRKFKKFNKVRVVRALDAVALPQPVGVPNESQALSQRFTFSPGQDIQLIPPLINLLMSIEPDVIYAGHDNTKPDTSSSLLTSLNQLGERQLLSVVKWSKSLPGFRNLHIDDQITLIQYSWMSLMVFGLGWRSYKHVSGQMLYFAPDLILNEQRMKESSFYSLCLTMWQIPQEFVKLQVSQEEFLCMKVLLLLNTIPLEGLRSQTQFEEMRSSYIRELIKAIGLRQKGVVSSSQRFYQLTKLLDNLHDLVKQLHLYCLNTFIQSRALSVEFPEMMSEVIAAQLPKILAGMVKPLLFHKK
pIC50: −log10 of the molar value.
Classification field: TRUE = pIC50 at or over 7; FALSE = pIC50 under 7.

[[record]]
compound = "CC[C@]12CC[C@H]3[C@@H](CCC4=CC(=O)CC[C@@H]43)[C@@H]1CC[C@@]21C=CCO1 (stereo in doubt)"
label_class = "TRUE"

[[record]]
compound = "CC[C@]12CC[C@H]3[C@@H](C[C@@H](CO)C4=CC(=O)CC[C@@H]43)[C@@H]1CC[C@@]21C=CCO1"
label_class = "FALSE"

[[record]]
compound = "C=C[C@@H]1CC2=CC(=O)CC[C@@H]2[C@H]2CC[C@@]3(CC)[C@@H](CC[C@@]34C=CCO4)[C@@H]21"
label_class = "FALSE"


* * *

# Emax per entry
molecular target: fusion protein from the PR-ligand-binding domain and a Gal4-transactivation domain (Homo sapiens); assay: Progestational action by transactivation test (CHO K1 reporter cells); assay type: cell-based; details: CHO K1 luciferase reporter, 16 hours incubation; read-out: Progesterone receptor Agonism efficacy
Sequence (P06401 679-913): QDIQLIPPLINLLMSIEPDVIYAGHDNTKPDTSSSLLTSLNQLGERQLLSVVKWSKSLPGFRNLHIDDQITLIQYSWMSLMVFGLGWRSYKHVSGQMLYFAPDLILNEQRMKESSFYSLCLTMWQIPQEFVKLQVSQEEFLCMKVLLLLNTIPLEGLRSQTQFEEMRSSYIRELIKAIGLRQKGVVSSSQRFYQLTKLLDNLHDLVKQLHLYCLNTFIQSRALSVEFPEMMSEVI
Endpoint Name: Emax (%)

[[record]]
compound = "C[C@]12CC[C@H]3[C@@H](C=CC4=CC(=O)CC[C@@H]43)[C@@H]1CC[C@@]21C=CCO1 (stereo in doubt)"
endpoint_name = "Emax"
reading_unit = "%"
readout_number = 36.4

[[record]]
compound = "CC[C@]12CC[C@H]3[C@@H](C=CC4=CC(=O)CC[C@@H]43)[C@@H]1CC[C@@]21C=CCO1 (stereo in doubt)"
endpoint_name = "Emax"
reading_unit = "%"
readout_number = 12.3

[[record]]
compound = "CC[C@@H]1CC2=CC(=O)CC[C@@H]2[C@H]2CC[C@@]3(CC)[C@@H](CC[C@@]34C=CCO4)[C@H]12"
endpoint_name = "Emax"
reading_unit = "%"
readout_number = 26.4


* * *

target: mineralocorticoid receptor (Homo sapiens (Human)); assay: Mineralocorticoid receptor binding test; settings: reference 3H-aldosterone, Hi5 cytosol
Sequence (P08235 whole entry): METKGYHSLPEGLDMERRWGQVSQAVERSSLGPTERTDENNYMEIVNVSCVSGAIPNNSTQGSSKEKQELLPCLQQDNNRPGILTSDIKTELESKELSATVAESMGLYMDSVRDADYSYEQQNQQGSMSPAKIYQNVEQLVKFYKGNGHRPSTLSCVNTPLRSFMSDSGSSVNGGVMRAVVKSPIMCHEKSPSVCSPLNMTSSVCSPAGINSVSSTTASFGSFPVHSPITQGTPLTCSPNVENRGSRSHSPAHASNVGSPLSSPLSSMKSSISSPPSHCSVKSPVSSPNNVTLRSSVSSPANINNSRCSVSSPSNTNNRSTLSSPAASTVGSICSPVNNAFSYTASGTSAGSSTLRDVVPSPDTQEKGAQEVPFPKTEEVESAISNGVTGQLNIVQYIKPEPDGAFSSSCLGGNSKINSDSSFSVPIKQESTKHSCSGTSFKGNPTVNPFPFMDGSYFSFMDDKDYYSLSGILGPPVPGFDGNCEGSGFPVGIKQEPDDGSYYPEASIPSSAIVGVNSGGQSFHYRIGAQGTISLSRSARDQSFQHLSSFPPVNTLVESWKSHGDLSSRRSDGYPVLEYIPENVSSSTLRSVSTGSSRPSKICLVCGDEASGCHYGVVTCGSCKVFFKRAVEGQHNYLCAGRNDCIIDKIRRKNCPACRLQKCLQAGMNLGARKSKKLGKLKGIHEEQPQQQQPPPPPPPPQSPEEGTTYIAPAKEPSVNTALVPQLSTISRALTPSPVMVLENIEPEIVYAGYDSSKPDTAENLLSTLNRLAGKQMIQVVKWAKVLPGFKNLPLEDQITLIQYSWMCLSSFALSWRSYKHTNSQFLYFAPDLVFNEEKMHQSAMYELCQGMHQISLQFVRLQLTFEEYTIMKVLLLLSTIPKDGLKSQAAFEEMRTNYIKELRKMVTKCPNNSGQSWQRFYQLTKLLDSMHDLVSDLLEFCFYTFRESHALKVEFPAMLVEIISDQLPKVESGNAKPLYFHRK
Endpoint Name: Mineralocorticoid receptor (MR) Competition factor

[[record]]
given_smiles = "CC[C@]12CC[C@H]3[C@@H]([C@H](C)CC4=CC(=O)CC[C@@H]43)[C@@H]1CC[C@@]21C=CCO1"
readout_number = 1.6

[[record]]
given_smiles = "CC[C@@H]1CC2=CC(=O)CC[C@@H]2[C@H]2CC[C@@]3(CC)[C@@H](CC[C@@]34C=CCO4)[C@H]12"
readout_number = 1.1

[[record]]
given_smiles = "C[C@@H]1CC2=CC(=O)CC[C@@H]2[C@H]2CC[C@@]3(C)[C@@H](CC[C@@]34C=CCO4)[C@@H]21"
readout_number = 3.2


* * *

# Progesterone receptor (PR) Competition factor per entry
Target: progesterone receptor (Homo sapiens (Human))
Test: Progesterone receptor binding test
Conditions: CF 1 = affinity of progesterone; CF > 1 lower affinity
Method: 1. Progesterone Receptor Binding Test: Using cytosol from progesterone receptor-expressing insect cells (Hi5), competitive binding to the progesterone receptor was determined from the ability to displace ^3H-progesterone as reference substance from the receptor.
Endpoint Name: Progesterone receptor (PR) Competition factor

[[record]]
compound = "C[C@]12CCC(=O)C=C1[C@@H]1C[C@@H]1[C@H]1[C@@H]3[C@@H]4C[C@@H]4[C@@]4(CCC(=O)O4)[C@@]3(C)CC[C@@H]12 [A, reference compound]"
readout_number = 2.7

[[record]]
compound = "C[C@]12CC[C@H]3[C@@H](C=CC4=CC(=O)CC[C@@H]43)[C@@H]1CC[C@@]21C=CCO1 (stereo in doubt)"
readout_number = 2.29

[[record]]
compound = "CC[C@@H]1CC2=CC(=O)CC[C@@H]2[C@H]2CC[C@@]3(C)[C@@H](CC[C@@]34C=CCO4)[C@H]12"
readout_number = 11.75

[[record]]
compound = "C=C[C@@H]1CC2=CC(=O)CC[C@@H]2[C@H]2CC[C@@]3(CC)[C@@H](CC[C@@]34C=CCO4)[C@@H]21"
readout_number = 6.24

[[record]]
compound = "CC[C@@H]1CC2=CC(=O)CC[C@@H]2[C@H]2CC[C@@]3(CC)[C@@H](CC[C@@]34C=CCO4)[C@H]12"
readout_number = 7.03

[[record]]
compound = "CC[C@]12CC[C@H]3[C@@H](C=CC4=CC(=O)CC[C@@H]43)[C@@H]1CC[C@@]21C=CCO1 (stereo in doubt)"
readout_number = 1.78


* * *

biological target: UniProtKB P06401
pIC50: −log10 of the molar value.
# pIC50 per entry
Endpoint Name: pIC50

[[record]]
compound = "C[C@@H]1CC2=CC(=O)CC[C@@H]2[C@H]2CC[C@@]3(C)[C@@H](CC[C@@]34C=CCO4)[C@@H]21 [Example 3]"
endpoint_name = "pIC50"
readout_number = 7.21

[[record]]
compound = "C[C@]12CC[C@H]3[C@@H](CCC4=CC(=O)CC[C@@H]43)[C@@H]1CC1(CC1)[C@@]21C=CCO1 (stereo in doubt) [Example 6]"
endpoint_name = "pIC50"
readout_number = 6.96

[[record]]
compound = "CC[C@]12CC[C@H]3[C@@H]([C@H](C)CC4=CC(=O)CC[C@@H]43)[C@@H]1CC[C@@]21C=CCO1 [Example 9]"
endpoint_name = "pIC50"
readout_number = 7.11

